# IC50 listing for each entry below
Target: TNKS1 (Homo sapiens, UniProt O95271)
Construct: GST-tagged Tnks-1 (1023-1327 aa, prepared in-house); made in house
Sequence (O95271 1023-1327): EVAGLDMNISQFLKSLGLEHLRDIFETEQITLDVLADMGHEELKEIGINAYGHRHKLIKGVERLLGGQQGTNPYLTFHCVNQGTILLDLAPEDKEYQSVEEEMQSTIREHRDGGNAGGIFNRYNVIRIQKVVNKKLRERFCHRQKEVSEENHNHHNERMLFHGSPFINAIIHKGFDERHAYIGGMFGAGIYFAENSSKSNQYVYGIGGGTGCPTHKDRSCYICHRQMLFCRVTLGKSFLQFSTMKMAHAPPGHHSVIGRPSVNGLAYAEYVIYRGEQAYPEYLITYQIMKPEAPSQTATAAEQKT
Experiment: TNKS1 activity ELISA (autoparsylation assay)
Type: biochemical
Details: GST-tagged Tnks-1 (1023-1327 aa)
Structures can show the parent of a compound that is named as a salt.
Just the number in nM, nothing appended.

> print(dat)
                                   compound  measurement
1  CCn1cc(C(=O)C2CCN(C(=O)CCCc3nn4cc(F)cc4c(=O)[nH]3)CC2)cn1 [Compound C215]          1.5
2  Cc1csc2c(=O)[nH]c(CCCC(=O)N3CCC(Oc4ccc(C#N)cc4)CC3)nc12 [Compound C130]           50

Query: May I ask what IC50 has been recorded for N#Cc1cc(C2CCN(C(=O)CCCc3nc4c(c(=O)[nH]3)COCC4)CC2)cnc1N [Compound C194] ?
Result: 15

Query: May I ask what IC50 has been recorded for Cc1ccc2c(=O)[nH]c(CCCC(=O)N3CCC(c4nnc(-c5ccccc5)o4)CC3)nn12 [Compound C151] ?
Result: 1.4

Query: May I ask what IC50 has been recorded for COc1ccc(C(=O)C2CCN(C(=O)CCCc3nc(C(C)C)cc(=O)[nH]3)CC2)cc1 [Compound C254, trifluoroacetate] ?
Result: 28

Query: May I ask what IC50 has been recorded for COc1ccc(C(=O)C2CCN(C(=O)CCCc3nc4c(C)scc4c(=O)[nH]3)CC2)cc1F [Compound C113] ?
Result: 0.38

Query: May I ask what IC50 has been recorded for Cn1ccc2c(=O)[nH]c(CCCC(=O)N3CCC(c4cnc(N)c(-c5ncccn5)c4)CC3)nc21 [Compound C183] ?
Result: 0.54

Query: May I ask what IC50 has been recorded for Cn1ccc2c(=O)[nH]c(CCCC(=O)N3CCC(C(=O)c4ccc(F)c(F)c4)CC3)nc21 [Compound C248] ?
Result: 0.7

====

Target: PARP-1 (Homo sapiens, UniProt P09874)
Construct: purchased Enzo Life Sciences GmbH, Lörrach, Germany
Sequence (P09874 whole entry): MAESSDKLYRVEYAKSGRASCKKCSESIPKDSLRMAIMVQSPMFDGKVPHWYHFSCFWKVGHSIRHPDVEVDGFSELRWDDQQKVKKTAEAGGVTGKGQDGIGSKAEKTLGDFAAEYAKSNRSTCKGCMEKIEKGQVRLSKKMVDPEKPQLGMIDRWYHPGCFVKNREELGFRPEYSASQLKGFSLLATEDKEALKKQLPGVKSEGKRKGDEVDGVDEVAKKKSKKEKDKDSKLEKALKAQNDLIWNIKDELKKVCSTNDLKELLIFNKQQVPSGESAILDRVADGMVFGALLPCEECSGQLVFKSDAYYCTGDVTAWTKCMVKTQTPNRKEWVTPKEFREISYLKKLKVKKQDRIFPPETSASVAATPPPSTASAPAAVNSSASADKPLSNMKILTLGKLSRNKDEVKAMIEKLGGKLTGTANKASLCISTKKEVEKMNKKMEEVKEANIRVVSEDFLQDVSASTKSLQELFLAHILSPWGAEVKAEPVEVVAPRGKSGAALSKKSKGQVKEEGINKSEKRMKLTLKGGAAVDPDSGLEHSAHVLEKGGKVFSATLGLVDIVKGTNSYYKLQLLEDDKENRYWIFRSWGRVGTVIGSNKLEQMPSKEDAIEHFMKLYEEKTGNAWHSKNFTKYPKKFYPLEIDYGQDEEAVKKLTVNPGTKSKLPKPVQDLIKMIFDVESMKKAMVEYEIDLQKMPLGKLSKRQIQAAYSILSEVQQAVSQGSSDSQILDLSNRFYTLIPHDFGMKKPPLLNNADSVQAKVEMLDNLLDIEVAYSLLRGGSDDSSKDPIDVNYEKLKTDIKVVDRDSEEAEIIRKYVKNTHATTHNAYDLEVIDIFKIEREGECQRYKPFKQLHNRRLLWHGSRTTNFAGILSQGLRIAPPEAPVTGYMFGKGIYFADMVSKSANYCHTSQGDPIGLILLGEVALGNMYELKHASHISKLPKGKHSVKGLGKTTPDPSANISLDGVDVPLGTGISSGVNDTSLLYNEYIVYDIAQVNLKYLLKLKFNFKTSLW
Assay: PARP-1 autoparsylation assay (HTRF)
Format: biochemical
Details: His-tagged Parp-1, autoparsylation HTRF
# log10(IC50) listing for each entry below
Each number you see is log10 of IC50, and the unit inside the log is nM.

Query: May I ask what log10(IC50) has been recorded for `COc1ccc(C(=O)C2CCN(C(=O)CCCc3nc4c(c(=O)[nH]3)CCCC4)CC2)cc1` ?
Result: 2.61

Query: May I ask what log10(IC50) has been recorded for `CCn1cc(C(=O)C2CCN(C(=O)CCCc3nn4c(C)ccc4c(=O)[nH]3)CC2)cn1` ?
Result: 3.08

Query: May I ask what log10(IC50) has been recorded for `COc1ccc(C(=O)C2CCN(C(=O)CCCc3nn4c(C)ccc4c(=O)[nH]3)CC2)cn1` ?
Result: 2.89

Query: May I ask what log10(IC50) has been recorded for `Cn1ccc2c(=O)[nH]c(CCCC(=O)N3CCC(c4nnc(-c5ccccc5)o4)CC3)nc21` ?
Result: 3.28

Query: May I ask what log10(IC50) has been recorded for `Cc1ncc2c(=O)[nH]c(CCCC(=O)N3CCC(C(=O)c4cnn(C)c4)CC3)cn12` ?
Result: 4.46

====

# IC50 listing for each entry below
Molecular target: TNKS1 (Homo sapiens)
Construct: GST-tagged Tnks-1 (1023-1327 aa, prepared in-house); made in house
Assay: TNKS1 activity ELISA (autoparsylation assay)
Type: biochemical
Details: GST-tagged Tnks-1 (1023-1327 aa)
Counter-ions that a name gives are not always drawn.
Just the number in nM, nothing appended.

Field: example entries. Status: answers known.
> print(dat)
                                   compound  measurement.units  measurement
1  CC(C)c1cc(=O)[nH]c(CCCC(=O)N2CCC(C(=O)c3cnn(C)c3)CC2)n1 [Compound C257, trifluoroacetate]                 nM          110
2  Cc1csc2c(=O)[nH]c(CCCC(=O)N3CCC(c4cnc(N)c(C#N)c4)CC3)nc12                 nM         0.95
3  Cc1cc2c(=O)[nH]c(CCCC(=O)N3CCC(C(=O)c4ccc(C(C)(C)O)cc4)CC3)nn2c1                 nM           12
4  Cn1cc(C(=O)C2CCN(C(=O)CCCc3cn4cc(F)cc4c(=O)[nH]3)CC2)cn1                 nM         0.24
5  Cn1cc(C(=O)C2CCN(C(=O)CCCc3nn4cc(F)cc4c(=O)[nH]3)CC2)cn1                 nM         0.52
6  COc1ccc(C(=O)C2CCN(C(=O)CCCc3nn4cccc4c(=O)[nH]3)CC2)cc1C                 nM         0.19
7  Cn1ncc2c(=O)[nH]c(CCCC(=O)N3CCC(Oc4ccc(C#N)cc4)CC3)nc21                 nM          110
8  COc1ccc(C(=O)C2CCN(C(=O)CCCc3cn4cncc4c(=O)[nH]3)CC2)cc1                 nM         0.32

From here, focus on the item given below.
Query: May I ask what IC50 has been recorded for `CC(C)n1cc(C(=O)C2CCN(C(=O)CCCc3nc4c(c(=O)[nH]3)COCC4)CC2)cn1` ?
Result: 23

====

Target: TNKS2 (Homo sapiens, UniProt Q9H2K2)
Construct: GST-tagged Tnks-2 (873-1166 aa, prepared in-house); made in house
Sequence (Q9H2K2 873-1166): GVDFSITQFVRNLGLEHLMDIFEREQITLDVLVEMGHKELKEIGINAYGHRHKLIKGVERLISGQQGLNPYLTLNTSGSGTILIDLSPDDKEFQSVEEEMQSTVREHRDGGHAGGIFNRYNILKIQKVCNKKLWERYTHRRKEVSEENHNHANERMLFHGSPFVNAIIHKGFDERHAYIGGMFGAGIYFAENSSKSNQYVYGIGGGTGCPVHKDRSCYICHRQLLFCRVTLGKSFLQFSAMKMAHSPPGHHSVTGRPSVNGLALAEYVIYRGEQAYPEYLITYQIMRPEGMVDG
Test: TNKS2 activity ELISA (autoparsylation assay)
Format: biochemical
Details: GST-tagged Tnks-2 (873-1166 aa); read-out: IC50 [M] TNKS2 ELISA
endpoint-name: IC50 (M)
Just the number in M, nothing appended.

Field: example entries. Status: answers known.
> print(dat)
                           substance.smiles                   experimental.target  measurement.units  measurement
1  O=C(CCCc1cn2cccc2c(=O)[nH]1)N1CCC(c2nnc(-c3ccccc3)o2)CC1  TNKS2 (Homo sapiens, UniProt Q9H2K2)                  M      1.3e-09
2  CC(C)n1cc(C(=O)C2CCN(C(=O)CCCc3nn4cc(F)cc4c(=O)[nH]3)CC2)cn1  TNKS2 (Homo sapiens, UniProt Q9H2K2)                  M        2e-09
3  CCc1cc(=O)[nH]c(CCCC(=O)N2CCC(C(=O)c3ccc(OC)cc3)CC2)n1  TNKS2 (Homo sapiens, UniProt Q9H2K2)                  M      2.9e-09

From here, focus on the item given below.
Query: Return IC50 measured with TNKS2 (Homo sapiens, UniProt Q9H2K2) given this molecule: `N#Cc1cc(C2CCN(C(=O)CCCc3nc4c(c(=O)[nH]3)CCCC4)CC2)cnc1N`
Result: 5.7e-09

====

# IC50 listing for each entry below
Biological target: TNKS1 (Homo sapiens)
Construct: GST-tagged Tnks-1 (1023-1327 aa, prepared in-house); made in house
Assay: TNKS1 activity ELISA (autoparsylation assay)
Type: biochemical
Settings: GST-tagged Tnks-1 (1023-1327 aa)
Just the number in nM, nothing appended.

Field: example entries. Status: answers known.
> print(dat)
                                   compound  measurement.units  measurement
1  COc1ccc(C(=O)C2CCN(C(=O)CCCc3nc4c(ccn4C)c(=O)[nH]3)CC2)cc1 [Compound C40]                 nM         0.17
2  CCn1cc(C(=O)C2CCN(C(=O)CCCc3nc4c(cnn4C)c(=O)[nH]3)CC2)cn1 [Compound C213]                 nM          1.2
3  COc1ccc(C(=O)C2CCN(C(=O)CCCc3nn4cc(C)cc4c(=O)[nH]3)CC2)cn1 [Compound C159]                 nM          1.2
4  Cc1scc2c(=O)[nH]c(CCCC(=O)N3CCC(C(=O)c4ccc(F)cc4)CC3)nc12 [Compound C119]                 nM          0.9
5  Cn1cc(C(=O)C2CCN(C(=O)CCCc3nn4cccc4c(=O)[nH]3)CC2)cn1 [Compound C146]                 nM          2.2

Query: May I ask what IC50 has been recorded for Cn1cc(C(=O)C2CCN(C(=O)CCCc3nn4c(F)c(F)cc4c(=O)[nH]3)CC2)cn1 [Compound C238] ?
Result: 1.5

Query: May I ask what IC50 has been recorded for COc1ccc(C(=O)C2CCN(C(=O)CCCc3cn4c(C)ccc4c(=O)[nH]3)CC2)cn1 [Compound C57] ?
Result: 0.19

Query: May I ask what IC50 has been recorded for COc1ccc(C(=O)C2CCN(C(=O)CCCc3nn4c(C)ccc4c(=O)[nH]3)CC2)cn1 [Compound C148] ?
Result: 0.28
